target: NR1/NR2C receptors (Rattus norvegicus); test: Two-electrode voltage-clamp, recombinant NR1/NR2C in Xenopus oocytes; assay type: cell-based; conditions: read-out: agonist EC50, + 20 μM CIQ
pEC50: −log10 of the molar value.
reported metric: pEC50

INSERT INTO results (compound, reported_metric, reported_result) VALUES
  ('N[C@@H](CCC(=O)O)C(=O)O [Glutamate, reference compound]', 'pEC50', 6.21);

----------
biological target: NR1/NR2C receptors (Rattus norvegicus, UniProt P35439+Q00961); test: Whole-cell voltage-clamp, NR1/NR2C in HEK 293 cells
Sequence (Q00961 20-1237, other chains not shown): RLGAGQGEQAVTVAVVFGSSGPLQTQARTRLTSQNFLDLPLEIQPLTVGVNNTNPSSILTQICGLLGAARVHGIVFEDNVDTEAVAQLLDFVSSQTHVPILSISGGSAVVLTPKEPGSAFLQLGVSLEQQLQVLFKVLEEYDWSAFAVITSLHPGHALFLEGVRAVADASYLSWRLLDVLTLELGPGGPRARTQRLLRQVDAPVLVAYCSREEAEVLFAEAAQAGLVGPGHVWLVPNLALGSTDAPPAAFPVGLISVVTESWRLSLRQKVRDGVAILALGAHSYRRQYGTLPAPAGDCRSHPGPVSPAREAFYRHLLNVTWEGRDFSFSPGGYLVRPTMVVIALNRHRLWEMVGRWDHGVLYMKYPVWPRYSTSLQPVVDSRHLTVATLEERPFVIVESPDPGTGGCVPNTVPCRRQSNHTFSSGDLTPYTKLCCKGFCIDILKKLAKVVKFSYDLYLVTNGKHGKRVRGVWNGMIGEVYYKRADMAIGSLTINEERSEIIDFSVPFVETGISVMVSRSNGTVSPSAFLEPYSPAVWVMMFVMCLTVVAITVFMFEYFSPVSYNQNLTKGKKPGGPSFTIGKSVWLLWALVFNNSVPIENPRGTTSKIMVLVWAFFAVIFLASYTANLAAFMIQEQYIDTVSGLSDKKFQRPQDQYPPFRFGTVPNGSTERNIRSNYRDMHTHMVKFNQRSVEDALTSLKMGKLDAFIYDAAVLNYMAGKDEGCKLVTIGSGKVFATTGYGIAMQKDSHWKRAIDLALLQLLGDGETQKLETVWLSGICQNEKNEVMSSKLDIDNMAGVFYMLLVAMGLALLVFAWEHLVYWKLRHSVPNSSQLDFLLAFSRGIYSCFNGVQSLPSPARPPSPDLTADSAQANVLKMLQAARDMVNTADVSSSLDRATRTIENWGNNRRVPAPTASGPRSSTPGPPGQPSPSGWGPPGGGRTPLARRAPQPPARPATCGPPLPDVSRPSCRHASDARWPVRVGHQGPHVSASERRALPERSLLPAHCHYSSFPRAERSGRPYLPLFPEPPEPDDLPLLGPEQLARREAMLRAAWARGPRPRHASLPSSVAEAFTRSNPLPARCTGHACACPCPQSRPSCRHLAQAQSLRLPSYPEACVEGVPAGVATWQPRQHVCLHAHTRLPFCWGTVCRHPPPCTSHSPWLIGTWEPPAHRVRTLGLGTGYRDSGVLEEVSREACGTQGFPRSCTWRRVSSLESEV
pEC50: −log10 of the molar value.
reported metric: pEC50

INSERT INTO assay_data (molecule, reported_result) VALUES
  ('COc1ccc(OCC2c3cc(OC)c(OC)cc3CCN2C(=O)c2cccc(Cl)c2)cc1 (stereo not shown)', 5.77);
